Test system: Escherichia coli TOP10
Assay: shrunken log2 fold change of peptide-encoding DNA abundance (4.5 h post-induction vs induction); higher = less antimicrobial activity (less host growth inhibition)
Conditions: time post-induction: 4.5 h; library: site-saturation at positions 5, 18, 19, 20
ASSAY_ENDPOINT: shrunken log2 fold change
In your answer, state the number alone without any accompanying words.

Examples from the recorded data:
RRIRCRPPRLPRPRPRPTFCPRP	-0.0442
RRIRFRPPRLPRPRPRPYFSPRP	-0.245

Value sought: shrunken log2 fold change, system Escherichia coli TOP10, item `RRIRARPPRLPRPRPRPFYAPRP` . Result: -0.066

Value sought: shrunken log2 fold change, system Escherichia coli TOP10, item `RRIRGRPPRLPRPRPRPFQMPRP` . Result: 0.0308

Value sought: shrunken log2 fold change, system Escherichia coli TOP10, item `RRIRCRPPRLPRPRPRPWYGPRP` . Result: -0.49

Value sought: shrunken log2 fold change, system Escherichia coli TOP10, item `RRIRLRPPRLPRPRPRPRQQPRP` . Result: 0.319

Value sought: shrunken log2 fold change, system Escherichia coli TOP10, item `RRIRVRPPRLPRPRPRPHNEPRP` . Result: -0.811

Value sought: shrunken log2 fold change, system Escherichia coli TOP10, item `RRIRARPPRLPRPRPRPAPWPRP` . Result: 0.632

---

shrunken log2 fold change listing for selected sequences.
Test system: Escherichia coli TOP10
Assay: shrunken log2 fold change of peptide-encoding DNA abundance (4.5 h post-induction vs induction); higher = less antimicrobial activity (less host growth inhibition)
Conditions: time post-induction: 4.5 h; library: site-saturation at positions 5, 18, 19, 20
In your answer, state the number alone without any accompanying words.

RRIRNRPPRLPRPRPRPESGPRP	-0.0271
RRIRCRPPRLPRPRPRPKQAPRP	-0.0334
RRIRTRPPRLPRPRPRPQLPPRP	0.107
RRIRMRPPRLPRPRPRPMRWPRP	0.539
RRIRERPPRLPRPRPRPDLGPRP	-0.0853
RRIRRRPPRLPRPRPRPPIWPRP	2.59
RRIRQRPPRLPRPRPRPMSGPRP	0.076
RRIRTRPPRLPRPRPRPRHSPRP	-0.106
RRIRVRPPRLPRPRPRPRDDPRP	-0.104
RRIRTRPPRLPRPRPRPRAEPRP	0.28

Kindly note the recorded shrunken log2 fold change for `RRIRWRPPRLPRPRPRPYKWPRP` , which is -0.484

Kindly note the recorded shrunken log2 fold change for `RRIRKRPPRLPRPRPRPQCKPRP` , which is 0.0757

Kindly note the recorded shrunken log2 fold change for `RRIRIRPPRLPRPRPRPNLSPRP` , which is -0.0917

---

Tested on: Escherichia coli TOP10
Assay: shrunken log2 fold change of peptide-encoding DNA abundance (4.5 h post-induction vs induction); higher = less antimicrobial activity (less host growth inhibition)
Settings: time post-induction: 4.5 h; library: site-saturation at positions 5, 18, 19, 20
shrunken log2 fold change listing for selected sequences.

RRIRARPPRLPRPRPRPYWPPRP	-0.00546
RRIRTRPPRLPRPRPRPGHYPRP	-0.137
RRIRPRPPRLPRPRPRPTLSPRP	0.421

Kindly note the recorded shrunken log2 fold change for `RRIRLRPPRLPRPRPRPREGPRP` , which is 0.966

Kindly note the recorded shrunken log2 fold change for `RRIRYRPPRLPRPRPRPTPSPRP` , which is 0.421

Kindly note the recorded shrunken log2 fold change for `RRIRFRPPRLPRPRPRPIIKPRP` , which is -0.696

Kindly note the recorded shrunken log2 fold change for `RRIRVRPPRLPRPRPRPTDIPRP` , which is -0.402

Kindly note the recorded shrunken log2 fold change for `RRIRLRPPRLPRPRPRPWDIPRP` , which is -0.0445

Kindly note the recorded shrunken log2 fold change for `RRIRVRPPRLPRPRPRPKGDPRP` , which is 0.275

Kindly note the recorded shrunken log2 fold change for `RRIRYRPPRLPRPRPRPEASPRP` , which is -0.0105

Kindly note the recorded shrunken log2 fold change for `RRIRSRPPRLPRPRPRPNITPRP` , which is -0.582

Kindly note the recorded shrunken log2 fold change for `RRIRQRPPRLPRPRPRPMEFPRP` , which is 0.0663

Kindly note the recorded shrunken log2 fold change for `RRIRLRPPRLPRPRPRPMGPPRP` , which is 0.015

Kindly note the recorded shrunken log2 fold change for `RRIRYRPPRLPRPRPRPKPEPRP` , which is -0.0857

Kindly note the recorded shrunken log2 fold change for `RRIRPRPPRLPRPRPRPKPDPRP` , which is 0.0452

Kindly note the recorded shrunken log2 fold change for `RRIRHRPPRLPRPRPRPNYGPRP` , which is -0.0744

Kindly note the recorded shrunken log2 fold change for `RRIRKRPPRLPRPRPRPKQWPRP` , which is 0.216

Kindly note the recorded shrunken log2 fold change for `RRIRCRPPRLPRPRPRPSDFPRP` , which is -0.203

Kindly note the recorded shrunken log2 fold change for `RRIRGRPPRLPRPRPRPVVIPRP` , which is -0.253

Kindly note the recorded shrunken log2 fold change for `RRIRHRPPRLPRPRPRPEPHPRP` , which is 0.113

Kindly note the recorded shrunken log2 fold change for `RRIRHRPPRLPRPRPRPKCKPRP` , which is -0.14

---

Tested on: Escherichia coli TOP10
Experiment: shrunken log2 fold change of peptide-encoding DNA abundance (4.5 h post-induction vs induction); higher = less antimicrobial activity (less host growth inhibition)
Conditions: time post-induction: 4.5 h; library: site-saturation at positions 5, 18, 19, 20
ASSAY_ENDPOINT: shrunken log2 fold change
In your answer, state the number alone without any accompanying words.

Examples from the recorded data:
RRIRLRPPRLPRPRPRPFANPRP	0.0335
RRIRARPPRLPRPRPRPFAPPRP	0.61
RRIRWRPPRLPRPRPRPQHKPRP	-0.0725
RRIRSRPPRLPRPRPRPQQYPRP	-0.525
RRIRNRPPRLPRPRPRPFRIPRP	-0.0132
RRIRKRPPRLPRPRPRPACTPRP	0.219

Kindly note the recorded shrunken log2 fold change for `RRIRDRPPRLPRPRPRPIQDPRP` , which is -0.0113

Kindly note the recorded shrunken log2 fold change for `RRIRKRPPRLPRPRPRPFNDPRP` , which is -0.135

Kindly note the recorded shrunken log2 fold change for `RRIRRRPPRLPRPRPRPLWMPRP` , which is 0.0635

Kindly note the recorded shrunken log2 fold change for `RRIRERPPRLPRPRPRPYQNPRP` , which is -0.0789

Kindly note the recorded shrunken log2 fold change for `RRIRLRPPRLPRPRPRPHMCPRP` , which is -0.165

Kindly note the recorded shrunken log2 fold change for `RRIRHRPPRLPRPRPRPHCIPRP` , which is -0.199

Kindly note the recorded shrunken log2 fold change for `RRIRPRPPRLPRPRPRPHPHPRP` , which is 0.0281

Kindly note the recorded shrunken log2 fold change for `RRIRPRPPRLPRPRPRPAEHPRP` , which is 0.214

Kindly note the recorded shrunken log2 fold change for `RRIRPRPPRLPRPRPRPMNNPRP` , which is -0.916

---

shrunken log2 fold change listing for selected sequences.
Test system: Escherichia coli TOP10
Assay: shrunken log2 fold change of peptide-encoding DNA abundance (4.5 h post-induction vs induction); higher = less antimicrobial activity (less host growth inhibition)
Details: time post-induction: 4.5 h; library: site-saturation at positions 5, 18, 19, 20
In your answer, state the number alone without any accompanying words.

RRIRFRPPRLPRPRPRPMSMPRP	0.00945

Kindly note the recorded shrunken log2 fold change for `RRIRFRPPRLPRPRPRPYWMPRP` , which is -0.371

Kindly note the recorded shrunken log2 fold change for `RRIRCRPPRLPRPRPRPYDTPRP` , which is -0.308

Kindly note the recorded shrunken log2 fold change for `RRIRCRPPRLPRPRPRPMYLPRP` , which is -0.464

Kindly note the recorded shrunken log2 fold change for `RRIRYRPPRLPRPRPRPPCNPRP` , which is -0.0594

Kindly note the recorded shrunken log2 fold change for `RRIRRRPPRLPRPRPRPFWWPRP` , which is 0.528

---

Test system: Escherichia coli TOP10;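 note: peptides expressed intracellularly from a pBAD plasmid library in pooled LB shake-flask culture, induced with 0.3% L-arabinose, DNA abundance read by NGS, three biological replicates, DESeq2 with apeglm shrinkage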
Assay: shrunken log2 fold change of peptide-encoding DNA abundance (4.5 h post-induction vs induction); higher = less antimicrobial activity (less host growth inhibition)
Conditions: time post-induction: 4.5 h; library: site-saturation at positions 5, 18, 19, 20
Use yes (1) when the recorded shrunken log2 fold change is no lower than -0.09; use no (0) when it is lower.

Does `RRIRDRPPRLPRPRPRPLQLPRP` have a reported shrunken log2 fold change of at least -0.09?
yes (1)

Does `RRIRGRPPRLPRPRPRPGNEPRP` have a reported shrunken log2 fold change of at least -0.09?
yes (1)

Does `RRIRCRPPRLPRPRPRPAVPPRP` have a reported shrunken log2 fold change of at least -0.09?
yes (1)

Does `RRIRIRPPRLPRPRPRPFWSPRP` have a reported shrunken log2 fold change of at least -0.09?
yes (1)

Does `RRIRFRPPRLPRPRPRPMDKPRP` have a reported shrunken log2 fold change of at least -0.09?
no (0)

Does `RRIRFRPPRLPRPRPRPEMMPRP` have a reported shrunken log2 fold change of at least -0.09?
yes (1)

Does `RRIRERPPRLPRPRPRPMALPRP` have a reported shrunken log2 fold change of at least -0.09?
yes (1)

Does `RRIRVRPPRLPRPRPRPEHVPRP` have a reported shrunken log2 fold change of at least -0.09?
yes (1)

Does `RRIRFRPPRLPRPRPRPYLGPRP` have a reported shrunken log2 fold change of at least -0.09?
no (0)

Does `RRIRMRPPRLPRPRPRPIQPPRP` have a reported shrunken log2 fold change of at least -0.09?
yes (1)

Does `RRIRQRPPRLPRPRPRPMCSPRP` have a reported shrunken log2 fold change of at least -0.09?
yes (1)
